// data source = patent US20030148956A1

CRF2R Emax % reference
- TESTED TARGET: T1, corticotropin releasing factor 2 receptor
- T1 sequence (Q13324 whole entry, species assumed, looked up): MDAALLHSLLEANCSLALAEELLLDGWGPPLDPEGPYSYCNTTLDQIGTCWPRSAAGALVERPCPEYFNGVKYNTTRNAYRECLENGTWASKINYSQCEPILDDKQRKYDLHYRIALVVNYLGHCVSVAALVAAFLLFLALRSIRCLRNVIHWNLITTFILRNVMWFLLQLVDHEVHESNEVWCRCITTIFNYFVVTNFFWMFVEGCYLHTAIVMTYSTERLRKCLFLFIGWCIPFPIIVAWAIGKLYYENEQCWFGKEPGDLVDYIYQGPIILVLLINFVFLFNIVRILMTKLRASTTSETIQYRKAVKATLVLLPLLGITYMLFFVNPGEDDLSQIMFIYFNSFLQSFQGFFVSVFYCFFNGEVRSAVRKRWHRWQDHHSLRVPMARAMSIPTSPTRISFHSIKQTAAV
- METHOD NOTES: cell-based or functional assay
MEASUREMENT TYPE: CRF2R Emax % (%)

# BINDER, MEASUREMENT TYPE, REPORTED MEASUREMENT
records = [
    ("ZGPPISIDLPHFLLRKMIEIEKQEKEKQQAANNRLLLDTI (C-terminal amide) [SEQ ID NO 219]", "CRF2R Emax %", 98),
    ("ZGPPISIDLPFQLLRKMIEIEKQEKEKQQAANNALLLDTI (C-terminal amide) [SEQ ID NO 251]", "CRF2R Emax %", 100),
    ("ZGPPISIDLPFQLLRKMIEIEKQEKEKQQAANNRLLLATI (C-terminal amide) [SEQ ID NO 250]", "CRF2R Emax %", 100),
    ("ZGPPISIDLPYWLLRKMIEIEKQEKEKQQAANNRLLLDTI (C-terminal amide) [SEQ ID NO 215]", "CRF2R Emax %", 100),
    ("ZGPPISIDLPQILLRKVIEIEKQEKEKQQAANNARLLARI (C-terminal amide) [SEQ ID NO 294]", "CRF2R Emax %", 100),
    ("ZGPPISIDLPTWLLRKVIEIEKQEKEKQQAANNRLLLDTI (C-terminal amide) [SEQ ID NO 284]", "CRF2R Emax %", 100),
]
